- Method summary: LNCaP granularity increase inducers, single-point recheck – cell-based, side scatter shift, flow cytometry, confirmation (AID 1069);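 note: LNCaP human prostate cancer cells in low-serum medium with charcoal-stripped FBS; percent of cells with raised granularity gated so DMSO controls show 10%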
- Condition details: LNCaP differentiation, 4 d, at 100 µM, stronger effect = higher value
Activity calls are given as the source filed them.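 Rule for the calls: active = high combined rank on largest and smallest cell-count-weighted shift across three tests, rank score above 45, floors 50 and 25 (some results past the limit were not filed as active); inactive = the rest.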
Items are presented alongside their recorded side scatter shift.

compound=Cc1oc(-c2ccccc2F)nc1CN1CCC(C(=O)NC2CC2)CC1 result="13.5% (inactive)"
compound=Cc1ccccc1-c1nc(CN2CCC(C(=O)O)CC2)c(C)o1 result="3.7% (inactive)"
compound=CCc1ccc(-c2nc(CN3CCC(C(=O)NCCc4ccc(OC)c(OC)c4)CC3)c(C)o2)cc1 result="35.3% (inactive)"
compound=CCCCn1c2c(c3ccccc31)CCc1nonc1-2 result="20.1% (inactive)"
compound="O=C(NCCCN1CCN(c2ccccc2F)CC1)C1CCC(=O)N1C1CCCC1 (stereo unspecified)" result="5% (inactive)"

Next item in the queue.
Q) What measured side scatter shift goes with COc1ccccc1N1CCN(Cc2cc(Br)c(O)c3ncccc23)CC1 ?
A) 35.3% (inactive)

====

Overview of reported side scatter shift across a group of compounds:
- Method summary: LNCaP granularity increase inducers, single-point recheck – cell-based, side scatter shift, flow cytometry, confirmation (AID 1069)
- Condition details: LNCaP differentiation, 4 d, at 100 µM, stronger effect = higher value
Activity calls are given as the source filed them.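 Rule for the calls: active = high combined rank on largest and smallest cell-count-weighted shift across three tests, rank score above 45, floors 50 and 25 (some results past the limit were not filed as active); inactive = the rest.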

compound=CCN(CCNC(=O)C1CCN(Cc2nc(-c3ccc(Cl)cc3)oc2C)CC1)c1ccccc1 reported_endpoint="side scatter shift" result="25% (inactive)"
compound=CCOC(=O)C1CCN(S(=O)(=O)c2ccc(-c3nc4ccccc4s3)s2)CC1 reported_endpoint="side scatter shift" result="25.7% (inactive)"
compound=COc1ccc(NC(=O)NCCCN2CCN(c3cc(C)ccc3C)CC2)cc1 reported_endpoint="side scatter shift" result="0% (inactive)"

Q) May I ask what side scatter shift has been recorded for COC(=O)c1ccccc1NC(=O)CN1CCC(n2nnc3cc(F)ccc32)CC1 ?
A) 25.9% (inactive)

Q) Would you mind doing Cc1ccc2[nH]c(=O)c3cc(C(=O)N(C)Cc4ccco4)sc3c2c1 as well?
A) 4.2% (inactive)

Q) Check COc1ccc(N2CCN(CCCNC(=O)C3CCCN(S(=O)(=O)c4cnc[nH]4)C3)CC2)cc1 (stereo not given) too.
A) 32.3% (inactive)

Q) Would you mind doing COc1ccc(-c2cc3c(=O)n(CC(=O)NC4CCN(Cc5ccccc5)CC4)ncn3n2)cc1 as well?
A) 36.1% (inactive)

Q) Ok, now O=C(NCCCN1CCN(c2cccc(Cl)c2)CC1)c1nc(-c2ccncc2)no1
A) 36.1% (inactive)

Q) Same for Cc1cc(NC(=O)CSc2nnc(C3CC3)n2C)no1
A) 11.6% (inactive)

Q) Another compound: CCCCOC(=O)Nc1cc(C(=O)OC)ccc1C(=O)OC
A) 21% (inactive)

====

# side scatter shift listing for each entry below
- Method summary: LNCaP granularity increase inducers, single-point recheck – cell-based, side scatter shift, flow cytometry, confirmation (AID 1069)
- Condition details: LNCaP differentiation, 4 d, side scatter shift, at 10 µM, stronger effect = higher value

Examples from the recorded data:
mol=Cc1onc(-c2ccccc2Cl)c1C(=O)N(C)C1CCCCC1 reported_endpoint="side scatter shift" result=5.1%
mol=Cc1cc(=O)oc(C)c1C(=O)NCCCN1CCN(c2ccc(F)cc2)CC1 reported_endpoint="side scatter shift" result=5.05%

Q) # lookup: side scatter shift of O=C(Nc1cccc(Cl)c1)N1CCN(Cc2ccccc2)CC1
A) 10.2%

====

- Method summary: LNCaP granularity increase inducers, single-point recheck – cell-based, side scatter shift, flow cytometry, confirmation (AID 1069);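 note: LNCaP human prostate cancer cells in low-serum medium with charcoal-stripped FBS; percent of cells with raised granularity gated so DMSO controls show 10%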
- Condition details: LNCaP differentiation, 4 d, side scatter shift, at 10 µM, stronger effect = higher value
Reported values of side scatter shift for individual entries
Reply numerically in %, unit not repeated.

Consider the following illustrative entries.
compound="Cn1c(=O)n(C)c2cc(CN3C(=O)OC(C)(C)C3(C)O)ccc21 (stereo unspecified)" reported_endpoint="side scatter shift" number=2.45
compound=CCC(CC)C(=O)Nc1cccc(C(=O)NCc2ccco2)c1 reported_endpoint="side scatter shift" number=6
compound="CCN1CCCC1CNC(=O)c1cc2c(-c3cccc(OC)c3)nn(C)c2s1 (stereo unspecified)" reported_endpoint="side scatter shift" number=12.8
compound=COc1ccc(CCNC(=O)C2CCN(Cc3nc(-c4cccc(Cl)c4)oc3C)CC2)cc1OC reported_endpoint="side scatter shift" number=12.2
compound=COc1ccc(-c2noc(-c3cc(Cl)ccc3Cl)n2)cc1OC reported_endpoint="side scatter shift" number=7.6

Now for another entry.
Q) May I ask what side scatter shift has been recorded for OCc1nc2ccccc2n1CCCOc1ccccc1 ?
A) 5.1

====

Below: a set of entries, each annotated with reported side scatter shift.
- Method summary: LNCaP granularity increase inducers, single-point recheck – cell-based, side scatter shift, flow cytometry, confirmation (AID 1069);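 note: LNCaP human prostate cancer cells in low-serum medium with charcoal-stripped FBS; percent of cells with raised granularity gated so DMSO controls show 10%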
- Condition details: LNCaP differentiation, 4 d, at 100 µM, stronger effect = higher value
The response must be a number in % with no trailing unit.

Worked cases, answers included:
compound="CCN1CCCC1CNC(=O)C1CCN(Cc2nc(-c3cccc(Br)c3)oc2C)CC1 (stereo unspecified)" number=6.3
compound=O=C(CCN1C(=O)COc2ccccc21)NCCCN1CCN(c2ccccc2F)CC1 number=21
compound=O=C(NCCCN1CCN(c2ccccc2F)CC1)C1CCN(S(=O)(=O)c2cccs2)CC1 number=22.7
compound=Cc1ccc(-c2noc(CCC(=O)NCCCN3CCN(c4ccc(F)cc4)CC3)n2)cc1 number=0

Q) Dear colleague, I am looking for the recorded side scatter shift of the following compound: Nc1ccc(-c2nc3c(Cl)c(N)ccc3[nH]2)cc1
A) 20.2

Q) Entry to check: Cc1ccccc1CN1CCN(CC(=O)NCCCN2CCN(c3ccc(F)cc3)CC2)C1=O
A) 3.3

Q) Request: Cc1cc2c(=O)n(CC(=O)N3CCN(c4ccccc4)CC3)cnc2s1
A) 30.4

Q) Try the compound COc1cccc(-c2cc(C(=O)N3CCCc4ccccc43)no2)c1
A) 22.2

Q) Let us now turn to Cc1oc(-c2cccc(Cl)c2)nc1CN1CCC(C(=O)NCc2ccco2)CC1
A) 35

Q) Entry to check: c1cncc(-c2nc3ccccc3o2)c1
A) 10.2

Q) Lookup O=C(Cn1cnc2ccccc2c1=O)NCCC(=O)N1CCN(c2ccccc2)CC1
A) 17.1

Q) How about this compound: CCOC(=O)N1CCC(NC(=O)c2cc3c(-c4ccc(OC)c(OC)c4)nn(C)c3s2)CC1
A) 16.6

Q) Next: CCCOc1ccccc1C1CC(=O)Nc2cc3c(cc21)OCO3 (stereo unspecified)
A) 16.7

Q) Also, Cc1ccc(Cn2c(C(=O)NCCCN3CCOCC3)cc3sccc32)cc1 please.
A) 20.1

Q) Try this compound too: CCN(CC)CCNC(=O)c1cc2c(-c3ccc(Cl)cc3)nn(C)c2s1
A) 24

====

- Method summary: LNCaP granularity increase inducers, single-point recheck – cell-based, side scatter shift, flow cytometry, confirmation (AID 1069);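 note: LNCaP human prostate cancer cells in low-serum medium with charcoal-stripped FBS; percent of cells with raised granularity gated so DMSO controls show 10%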
- Condition details: LNCaP differentiation, 4 d, at 100 µM, stronger effect = higher value
Listing: side scatter shift of selected compounds
// units = %; emit number, no label

compound=Cn1c(C(=O)NCCCN2CCN(c3ccccc3F)CC2)cc2c(=O)n(C)c3ccccc3c21 number=20
compound=CCOc1ccc2ccccc2c1C(=O)N1CCN(c2ccccc2)CC1 number=21.1

Q) Tell me the measured side scatter shift of Cc1nc2nc(C)c(CCC(=O)NCCCN3CCN(c4cccc(Cl)c4)CC3)c(C)n2n1 , please.
A) 27.9

Q) Try this compound too: Cc1cccc(OCCn2c(=O)n(C)c3ccccc32)c1
A) 26.7

Q) Another compound: Cn1c(=O)cc(SCC(=O)NCCCN2CCN(c3ccccc3F)CC2)c2ccccc21
A) 70.5

Q) Another: O=C(CCCCCn1c(=O)[nH]c2ccccc2c1=O)NCCCN1CCN(c2ccccc2F)CC1
A) 27.8

Q) Check CCS(=O)(=O)N1CCC(C(=O)NCCCN2CCN(c3ccccc3F)CC2)CC1 too.
A) 13.3

Q) Try this compound too: Cc1ccc(NC(=O)CCNS(=O)(=O)c2ccc3c(c2)oc(=O)n3C)c(C)c1
A) 1.7

Q) Entry to check: Cc1oc(-c2cccc(Cl)c2)nc1CN1CCCC(C(=O)NCc2ccco2)C1 (configuration not stated)
A) 50

Q) Also CCOC(=O)N1CCN(CC(=O)Nc2cc(C)nn2-c2nc3ccccc3s2)CC1 ?
A) 19.3

Q) And COc1ccc(-n2nnnc2SCC(=O)c2ccc(O)c(O)c2)cc1 ?
A) 0

Q) Try COc1ccccc1N1CCN(C(=O)CCn2c(=O)[nH]c3ccsc3c2=O)CC1 next.
A) 19.4

Q) Same question, COc1cccc(Oc2cnc(N)nc2-c2ccc(OC)cc2O)c1 this time
A) 22.2

Q) Try the compound CCCS(=O)(=O)N1CCCC(C(=O)NCCCN2CCN(c3cccc(Cl)c3)CC2)C1 (configuration not stated)
A) 17

Q) Would you mind doing Cc1cc(N2CCN(C)CC2)nc2ccc(NC(=O)c3ccc4c(c3)OCO4)cc12 as well?
A) 71.9

Q) And then Cc1ccc(CN2CCSc3ccc(C(=O)N4CCN(c5ncccn5)CC4)cc32)cc1 , what is it?
A) 18.6

Q) What about this compound? COc1ccc(-c2noc(CCC(=O)NCCCN3CCC(Cc4ccccc4)CC3)n2)cc1
A) 21.7
